B1: library; numbered along this chain (parent)
chain: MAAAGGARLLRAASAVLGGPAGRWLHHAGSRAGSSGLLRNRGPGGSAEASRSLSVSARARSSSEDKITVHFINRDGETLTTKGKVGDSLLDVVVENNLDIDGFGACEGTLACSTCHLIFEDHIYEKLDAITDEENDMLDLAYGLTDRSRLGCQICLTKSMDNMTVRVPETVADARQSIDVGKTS

# Variants of: B1
# TEST_SUMMARY: scaled log2 fold change in cell abundance, elesclomol vs control (0 = silent mean, 1 = nonsense mean) (scaled log2 ratio); higher = higher viability under elesclomol (loss of FDX1 cuproptosis function);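 note: variant abundance is its share of total variant reads in each endpoint sample, from next-generation sequencing of the integrated ORF PCR-amplified out of genomic DNA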
# COND: with HEK293T FDX1 KO; elesclomol 40 nM; glucose 10 mM; 11 days
Exercise: state measured scaled log2 fold change for each of the variants provided.
Write no unit; give the number alone.

Input T183H . Output scaled log2 fold change: -0.49

Input A28F . Output scaled log2 fold change: 0.0914

Input S46R . Output scaled log2 fold change: 0.639

Input S177D . Output scaled log2 fold change: -0.675

Input I100H . Output scaled log2 fold change: -0.835

Input E95L . Output scaled log2 fold change: -0.709

Input L150H . Output scaled log2 fold change: -0.201

Input N96Q . Output scaled log2 fold change: 0.0675

Input H70V . Output scaled log2 fold change: -1.13

Input E48Q . Output scaled log2 fold change: 0.877

Input T157S . Output scaled log2 fold change: 0.742

Input D128C . Output scaled log2 fold change: 0.174

Input R147F . Output scaled log2 fold change: -0.384

Input E77L . Output scaled log2 fold change: 0.144

Input V55T . Output scaled log2 fold change: -0.356

Input E95D . Output scaled log2 fold change: 0.1

Input Q176A . Output scaled log2 fold change: 0.8

Input A105F . Output scaled log2 fold change: 0.146

Input R175A . Output scaled log2 fold change: -0.138

Input T131P . Output scaled log2 fold change: -0.104

Input S46Q . Output scaled log2 fold change: 0.186

Input K126W . Output scaled log2 fold change: 0.186

Input D179G . Output scaled log2 fold change: 0.304

Input E64L . Output scaled log2 fold change: -0.952

Input G151P . Output scaled log2 fold change: 1.12

Input G45R . Output scaled log2 fold change: -0.475

Input M137T . Output scaled log2 fold change: -0.403

Input K82C . Output scaled log2 fold change: 0.165

Input V93T . Output scaled log2 fold change: -0.372

Input S54Y . Output scaled log2 fold change: -0.0955

Input T81R . Output scaled log2 fold change: 0.0327

Input G42C . Output scaled log2 fold change: 0.316

Input V167P . Output scaled log2 fold change: -0.184

Input G83N . Output scaled log2 fold change: -0.106

Input S54L . Output scaled log2 fold change: -0.248

Input H26F . Output scaled log2 fold change: -0.237

Input V85I . Output scaled log2 fold change: -0.597

Input W24K . Output scaled log2 fold change: -0.743

Input L90P . Output scaled log2 fold change: 0.277

Input S113K . Output scaled log2 fold change: 0.195

Input Q176V . Output scaled log2 fold change: -0.626

Input G29W . Output scaled log2 fold change: 0.76

Input A105S . Output scaled log2 fold change: 0.253

Input F119I . Output scaled log2 fold change: -0.0254

Input C106I . Output scaled log2 fold change: 1.5

Input R31L . Output scaled log2 fold change: -0.385

All figures here come from the supplement of paper PMC12855868.
